- System: Bacillus subtilis
- measurementNotes: Antibacterial activity against Bacillus subtilis ATCC 23857 assessed as reduction in bacterial growth incubated for 18 to 20 hrs by Mueller Hinton broth dilution method
- Assay type: functional
- testParameters: time 18-20 hrs
Square brackets hold non-standard residues; d marks the D form. Peptide text beside a SMILES is read from it.
Assignment: determine reported MIC for the given molecules.
Quick reminder: number only, in µM, skip the unit.

Look up MIC for this molecule: CC[C@H](C)[C@H](NC(=O)[C@H](CCCNC(=N)N)NC(=O)[C@H](CCCCN)NC(=O)[C@H](CC(C)C)NC(=O)[C@@H](CC(C)C)NC(=O)CN)C(=O)N[C@@H](CCCCN)C(=O)N[C@H](C(=O)N[C@@H](CC(C)C)C(=O)N[C@H](CC(C)C)C(N)=O)[C@@H](C)O
64

Look up MIC for this molecule: CC[C@H](C)[C@H](NC(=O)[C@@H](CCCNC(=N)N)NC(=O)[C@H](CCCCN)NC(=O)[C@H](CC(C)C)NC(=O)[C@H](CC(C)C)NC(=O)CN)C(=O)N[C@H](CCCCN)C(=O)N[C@H](C(=O)N[C@@H](CC(C)C)C(=O)N[C@@H](CC(C)C)C(N)=O)[C@@H](C)O
32

Look up MIC for this molecule: CC(C)C[C@@H](NC(=O)[C@@H](CC(C)C)NC(=O)[C@@H](CCCCN)NC(=O)[C@@H](CCCCN)NC(=O)[C@@H](Cc1c[nH]c2ccccc12)NC(=O)[C@@H](Cc1c[nH]c2ccccc12)NC(=O)[C@@H](CCCCN)NC(=O)[C@@H](CC(C)C)NC(=O)[C@@H](CC(C)C)NC(=O)[C@H](N)CCCCN)C(N)=O (H-[dK][dL][dL][dK][dW][dW][dK][dK][dL][dL]-NH2)
4

Look up MIC for this molecule: CC[C@H](C)[C@H](NC(=O)[C@H](CCCNC(=N)N)NC(=O)[C@@H](CCCCN)NC(=O)[C@H](CC(C)C)NC(=O)[C@H](CC(C)C)NC(=O)CN)C(=O)N[C@@H](CCCCN)C(=O)N[C@@H](C(=O)N[C@@H](CC(C)C)C(=O)N[C@@H](CC(C)C)C(N)=O)[C@H](C)O
32

Look up MIC for this molecule: CC[C@H](C)[C@H](NC(=O)[C@H](CCCNC(=N)N)NC(=O)[C@H](CCCCN)NC(=O)[C@@H](CC(C)C)NC(=O)[C@H](CC(C)C)NC(=O)CN)C(=O)N[C@@H](CCCCN)C(=O)N[C@H](C(=O)N[C@H](CC(C)C)C(=O)N[C@@H](CC(C)C)C(N)=O)[C@@H](C)O
16
